Where do the numbers come from? From PubChem BioAssay AID248.

# System: L1210 leukemia ip in BDF1 mice, survival T/C
# MEASUREMENT DESCRIPTION: NCI In Vivo Anticancer Drug Screen. Data for tumor model L1210 Leukemia (intraperitoneal) in B6D2F1 (BDF1) mice
# MEASUREMENT PARAMETERS: endpoint: mean survival time; dose: 400.0 mg/kg/injection; schedule: Q04DX003 (ip); vehicle: Klucel (hydroxypropylcellulose) (HPC); higher = longer survival
Toxic doses and inconclusive results are not listed.
Attribute: T/C

COMPOUND: CC1=CC(C)(C)NC(=S)N1c1ccc(C)cc1
T/C: 91 % of control

COMPOUND: CN(NC(=O)OCc1ccccc1)C(=O)OCc1ccccc1
T/C: 110 % of control

COMPOUND: Cc1cc2nc(C)c(=O)[nH]c2cc1C
T/C: 92 % of control

The reported value for COC(=O)c1ncn(/C=C/c2ccccc2)c1C(=O)O in terms of T/C is 87 % of control

The reported value for O=C(OC1C=CCC1)c1ccc([N+](=O)[O-])cc1 (configuration not stated) in terms of T/C is 93 % of control

The reported value for CCCCOc1ccc(C(=O)N/N=C\c2cc(OC)c(OC)c(OC)c2)cc1 in terms of T/C is 91 % of control

The reported value for CCCCC1C/C=C/C=C/C=C/C=C/C(OC2OC(C)C(O)C(N)C2O)CC2OC(O)(CC(O)CC3OC3/C=C/C(=O)O1)CC(O)C2C(=O)O (configuration not stated) in terms of T/C is 107 % of control

The reported value for CCOc1ccccc1NC(=S)NC(=O)c1ccc(OC)cc1 in terms of T/C is 100 % of control

The reported value for O=Cc1ccc(C=O)c(Cl)c1 in terms of T/C is 103 % of control
